Each entry below carries its reported folding stability dG unfold.
- METHOD DESCRIPTION: folding stability dG unfold (combined trypsin and chymotrypsin); higher = more stable
Put your answer as a value accompanied by its unit after it.

Consider the following illustrative entries.
SEQUENCE RECORD: SAGGKKMTFKVDEIQTHGNQIMIPIRFPDGHPFPMQIDDPEQLDNLKPGEEIKIEFRPDGSFRIEWRSAGGS [r16_2_TrROS]
folding stability dG unfold: 1.55 kcal/mol

SEQUENCE RECORD: SAGGSAGGSMPVLVSESPVGTLPDGTKVTRVTYRFPNGEILTETVVEPGPGPPTPENVALTLASAGGSAGGS [r12_775_JUSTAS]
folding stability dG unfold: 1.6 kcal/mol

SEQUENCE RECORD: SAGKVKATYDPKTGTLTITFNVKKNEKINVKANIKIPEYNATVEKVETNGAKKDNEPVTVKIKLKNLKKSAG [r5_737_TrMRF]
folding stability dG unfold: 1.94 kcal/mol

Note: attention shifts to another entry.
Exercise: Supply measured folding stability dG unfold of SADGKVKVVVNLRITVTPLSPDGTPQPLPAASIPLVFEGDANDPEAVEQAVRDVLDALAPLFPDAEIVVDSA [r9_1112_TrMRF] in your reply.
Solution: 1.73 kcal/mol

---

- METHOD DESCRIPTION: folding stability dG unfold from trypsin proteolysis; higher = more stable
PROPERTY NAME: folding stability dG unfold

SEQUENCE RECORD: SAGGSAGGSAGGMNPIVIKKTYPVKSGSFTVTLPEGVTPVSFEKDPNSDTITIEVLVEPSAGGSAGGSAGGS [r10_906_JUSTAS]
REPORTED MEASUREMENT: 0.63 kcal/mol
--
SEQUENCE RECORD: SAGGASTVEYEITLPLDPSGSVDPDTIRAAAEAIAAADPDFVDHRIEEITITRLPDGTVRFTVTISVPSAGG [r13_462_JUSTAS]
REPORTED MEASUREMENT: 2.66 kcal/mol

Exercise: Supply measured folding stability dG unfold of SAAFKGKNGKTIKITAKVKPNELTPEQVKELALAAVKNIFPENEKVEVKVKVEKLPNGEVLVYVEVKAESAG [r14_389_TrMRF] in your reply.
Solution: 1.22 kcal/mol

Exercise: Supply measured folding stability dG unfold of SAGGSAGGSAGGMREVIRRPEASGEVTVEPLPEDERRPVDFGSDGVVLWREGDEVVVEPSAGGSAGGSAGGS [r10_817_JUSTAS] in your reply.
Solution: 0.00105 kcal/mol

Exercise: Supply measured folding stability dG unfold of SAGGSAGGSAGKKKKKKLVRVRITYKNGKKKEFVFKTKEEAEKALKEEFNIEKIEIEEIPSAGGSAGGSAGG [r17_508_TrROS_Hall] in your reply.
Solution: 2.84 kcal/mol

Exercise: Supply measured folding stability dG unfold of SAGYIIGYPIIEELFNAGKPEEIRKILKEAVEKDPDKIIIIEVPENPEIAKAIEEAFKEEGIPLIIIPESAG [r14_236_TrMRF] in your reply.
Solution: 1.02 kcal/mol

Exercise: Supply measured folding stability dG unfold of SAGGSAGGSAGGTIEELVKAGKTVKVRVRLKNGETLEVEIRPDEVVEFPNIEEIEVEEVSAGGSAGGSAGGS [r10_700_TrROS_Hall] in your reply.
Solution: 0.784 kcal/mol
